# Tested system: Thyrotropin-releasing hormone receptor (Homo sapiens)
# Experiment: qHTS for Small Molecule Agonists and Allosteric Enhancers of Human TRH Receptor: Confirmation Screen for Enhancers;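 note: compound effect scored on response to added TRH at EC20 of 10 nM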
# Particulars: TRH receptor cell assay, enhancer confirmation qHTS; series mostly up to 46.1 µM
This is one part of the list. Inconclusive results are not listed. Calls of active or inactive are those of the source. Calls come from the whole dose curve; as a rule, active = well fitted curve in the direction sought with a large enough effect; inconclusive = small, poorly fitted or top-dose-only effect, or effect the other way, or another doubt; inactive = no such curve, though single readings can be large or run the other way. Residues, ends and D or L forms follow the SMILES beside them. *: point of attachment. OPac = O=C(CO*)c1ccccc1; Bz = O=C(c1ccccc1)*
Quantity kind: outcome

[[record]]
compound = "NC(N)=Nc1nc(-c2ccccc2)c2cc(Cl)ccc2n1"
quantity_kind = "outcome"
result = "inactive"

[[record]]
compound = "CC(=O)c1cc(NC(=O)c2ccccc2)c(=O)oc1/C=C/N(C)C"
quantity_kind = "outcome"
result = "inactive"

[[record]]
compound = "COc1ccc(Cl)cc1NC(=O)CN(C)Cc1ccc(OC)c(OC)c1"
quantity_kind = "outcome"
result = "inactive"

[[record]]
compound = "Cc1c(/C=N\\NC(=O)c2cc3ccccc3o2)c2ccccc2n1C"
quantity_kind = "outcome"
result = "inactive"

[[record]]
compound = "NS(=O)(=O)c1cccc(NC(=O)CSc2nc3ccccc3n2-c2ccccc2)c1"
quantity_kind = "outcome"
result = "inactive"

[[record]]
compound = "O=C1NC(=O)C2C1C(c1ccc([N+](=O)[O-])cc1)=NN2Cc1ccccc1 (stereo not given)"
quantity_kind = "outcome"
result = "inactive"

[[record]]
compound = "COC(=O)C1=C(C)NC2=C(C(=O)c3ccccc32)C1c1ccc(-c2ccc(C(=O)O)cc2)o1 (stereo not given)"
quantity_kind = "outcome"
result = "inactive"

[[record]]
compound = "CN(C(=O)CSc1nnc(Nc2ccccc2)s1)C1CCS(=O)(=O)C1 (stereo not given)"
quantity_kind = "outcome"
result = "inactive"

[[record]]
compound = "CC(=O)N1CCN(CC(=O)Nc2ccc(C)c(F)c2)CC1"
quantity_kind = "outcome"
result = "inactive"

[[record]]
compound = "O=C(CNC(=O)c1ccccc1)NCC(=O)OCC(=O)c1ccccc1 (Bz-Gly-Gly-OPac)"
quantity_kind = "outcome"
result = "inactive"


Hello, the source for this data is PubChem BioAssay AID493076, in case you need it.
